B1: HEEH_KT_rd6_3632 (parent)
chain: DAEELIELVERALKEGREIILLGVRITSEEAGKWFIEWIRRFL

Variants of: B1
Test: folding stability dG (cDNA display proteolysis); higher = more stable
Settings: PBS, room temperature
measured_quantity: folding stability dG (kcal/mol)
The response must be a number in kcal/mol with no trailing unit.

>  <mutation_descriptor>
L43Y

>  <quantitative_result>
3.81

$$$$
>  <mutation_descriptor>
G32E

>  <quantitative_result>
3.22

$$$$
>  <mutation_descriptor>
D1M

>  <quantitative_result>
4.11

$$$$

Entry under test: "A12T" . Its folding stability dG was 3.3

Entry under test: "E10Y" . Its folding stability dG was 3.81

Entry under test: "I19G" . Its folding stability dG was 2.96

Entry under test: "I20F" . Its folding stability dG was 3.32

Entry under test: "L21I" . Its folding stability dG was 3.83

Entry under test: "E18T" . Its folding stability dG was 3.94

Entry under test: "V9C" . Its folding stability dG was 4.04

FYI, the data here is from the MegaScale stability set (Tsuboyama et al. 2023).
